# ASSAY_REMARKS: gradient 5% acetonitrile 3 min, to 50% in 2 min, to 85% in 15 min, held 3 min, 100 µL/min
# STATED_CONDITIONS: column: Zorbax Extend-C18 2.1 x 50 mm; eluents: water / acetonitrile, 0.1% formic acid
RP-LC retention time reference

>  <COMPOUND>
Cc1nn(-c2ccccc2)c(C)c1S(=O)(=O)N1CCC(C(=O)NC2CC2)CC1

>  <RP-LC retention time (s)>
744

$$$$
>  <COMPOUND>
COc1cc(NC(=O)c2cnc3c(c2)c(=O)n(C)c(=O)n3-c2ccc(C)cc2)cc(OC)c1

>  <RP-LC retention time (s)>
952

$$$$
>  <COMPOUND>
O=C(NCc1ccc(Cl)cc1)c1ccc(NC(=O)C2CCC2)cc1N1CCOCC1

>  <RP-LC retention time (s)>
896

$$$$
>  <COMPOUND>
CCc1ccc(Oc2cc(N3CCC(C(=O)NCCCOC)CC3)ncn2)cc1

>  <RP-LC retention time (s)>
578

$$$$
>  <COMPOUND>
CCc1cccc(NC(=O)Cn2c(=O)c3cc(C4CC4)nn3c3ncccc32)c1

>  <RP-LC retention time (s)>
844

$$$$
>  <COMPOUND>
Cn1c(C(=O)NCc2cc(F)ccc2F)cc2ccncc21

>  <RP-LC retention time (s)>
622

$$$$
>  <COMPOUND>
Cc1ccc(S(=O)(=O)N2C[C@@H]3C[C@H](NC(=O)c4cccnc4)[C@H]2C3)cc1C

>  <RP-LC retention time (s)>
724

$$$$
>  <COMPOUND>
CCc1ccc2nc(Nc3ncc4c(n3)CC(c3ccccc3)CC4=O)nc(C)c2c1 (stereo not drawn)

>  <RP-LC retention time (s)>
636

$$$$
>  <COMPOUND>
Cc1cccc(NC(=O)C2CCCN(S(=O)(=O)c3cc(-c4noc(C5CCC5)n4)cs3)C2)c1 (stereo not drawn)

>  <RP-LC retention time (s)>
1130

$$$$
>  <COMPOUND>
COc1ccc(-c2nn3c(CSc4ccccc4)nnc3s2)cc1OC

>  <RP-LC retention time (s)>
882

$$$$
>  <COMPOUND>
O=C(CCCSc1ccc(NC(=O)c2cccs2)nn1)NCc1ccco1

>  <RP-LC retention time (s)>
714

$$$$
>  <COMPOUND>
Cc1ccc(-c2ncccc2CNS(=O)(=O)c2ccc(F)cc2)cc1

>  <RP-LC retention time (s)>
707

$$$$
>  <COMPOUND>
CC(=O)NCC(=O)NCc1nn(Cc2ccccc2)c2ccccc12

>  <RP-LC retention time (s)>
679

$$$$
>  <COMPOUND>
Cc1ccsc1CN1CCn2nnc(CCC(=O)N3CCOCC3)c2C1

>  <RP-LC retention time (s)>
628

$$$$
>  <COMPOUND>
Cc1cc(C)c(C(=O)N2CCC(CC(=O)NCc3ccc4c(c3)OCO4)CC2)[nH]1

>  <RP-LC retention time (s)>
724

$$$$
>  <COMPOUND>
CCCS(=O)(=O)N1CCc2nc(N3CCN(C)CC3)sc2C1

>  <RP-LC retention time (s)>
764

$$$$
>  <COMPOUND>
Cc1cc(C)cc(NC(=O)C2CCN(S(=O)(=O)c3ccc4c(c3)sc(=O)n4C(C)C)CC2)c1

>  <RP-LC retention time (s)>
1070

$$$$
>  <COMPOUND>
CC(=O)c1ccc(NC(=O)Cn2c(C)cc(-c3nnc(C4CCC4)o3)c2C)cc1

>  <RP-LC retention time (s)>
813

$$$$
>  <COMPOUND>
COc1ccc(-c2nc(-c3ccc4oc(C)nc4c3)no2)cc1

>  <RP-LC retention time (s)>
1090

$$$$
>  <COMPOUND>
Cc1ccc(NC(=O)C2CCN(C(=O)c3ncn4c3COC(c3ccc(F)cc3)C4)CC2)c(Cl)c1 (stereo not drawn)

>  <RP-LC retention time (s)>
842

$$$$
>  <COMPOUND>
O=C1CCCN1CCCN1C(=O)[C@H]2CN(Cc3ccc(F)c(Cl)c3)C[C@H]2C1=O

>  <RP-LC retention time (s)>
599

$$$$
>  <COMPOUND>
CCCC(NC(=O)c1ccc2c(c1)OCO2)C(=O)Nc1nc2ccccc2[nH]1 (stereo not drawn)

>  <RP-LC retention time (s)>
670

$$$$
>  <COMPOUND>
COCC(=O)N(CC(=O)N1CCc2sccc2C1COc1ccc(Cl)cc1)C(C)C (stereo not drawn)

>  <RP-LC retention time (s)>
909

$$$$
>  <COMPOUND>
CCOC(=O)c1ccc(NC(=O)c2c(OC)cc(=O)n3c2CCCC3)cc1

>  <RP-LC retention time (s)>
718

$$$$
>  <COMPOUND>
COc1ccc([N+](=O)[O-])cc1NC(=O)N(C)Cc1ccco1

>  <RP-LC retention time (s)>
922

$$$$
>  <COMPOUND>
Cc1cccc(Nc2ccc(N3CCN(C(=O)c4ccc(Br)o4)CC3)nn2)n1

>  <RP-LC retention time (s)>
578

$$$$
>  <COMPOUND>
COc1cccc(NC(=O)N2CCC(n3c(C(F)(F)F)nc4cccnc43)CC2)c1

>  <RP-LC retention time (s)>
861

$$$$
>  <COMPOUND>
CCCCn1c(=O)c2ccccc2n(Cc2nc(-c3ccc(OC(C)C)cc3)no2)c1=O

>  <RP-LC retention time (s)>
1290

$$$$
>  <COMPOUND>
CCOC(=O)c1[nH]c(C)c(S(=O)(=O)N2CCN(c3ccccn3)CC2)c1C

>  <RP-LC retention time (s)>
640

$$$$
>  <COMPOUND>
Nc1cc(C2CCN(C(=O)COc3ccc(F)cc3)CC2)no1

>  <RP-LC retention time (s)>
656

$$$$
>  <COMPOUND>
CC(C)CN1C(=O)c2ccccc2C(C(=O)NCc2cccnc2)C12CCCCC2 (stereo not drawn)

>  <RP-LC retention time (s)>
659

$$$$
>  <COMPOUND>
CCn1cc(C(CNC(=O)Nc2ccc(OC)cc2OC)c2cccnc2)c2ccccc21 (stereo not drawn)

>  <RP-LC retention time (s)>
700

$$$$
>  <COMPOUND>
COc1ncc(C(=O)N2CCc3ccccc3C2)cn1

>  <RP-LC retention time (s)>
729

$$$$
>  <COMPOUND>
COc1ccc2nc(NC3=NCN(CCc4ccc(OC)c(OC)c4)CN3)nc(C)c2c1

>  <RP-LC retention time (s)>
709

$$$$
>  <COMPOUND>
CCc1nc2cc(-c3noc(-c4cnccn4)n3)ccc2o1

>  <RP-LC retention time (s)>
830

$$$$
>  <COMPOUND>
CCOc1ccc(CNC(=O)c2sccc2S(=O)(=O)N(C)c2ccc(OCC)cc2)cc1

>  <RP-LC retention time (s)>
1170

$$$$
>  <COMPOUND>
C=CCNC(=O)c1cc(C)nc2c(C)cc(C)cc12

>  <RP-LC retention time (s)>
644

$$$$
>  <COMPOUND>
CCn1nccc1-c1cccc(-c2noc(-c3ccc(F)c(F)c3)n2)c1

>  <RP-LC retention time (s)>
1270

$$$$

###

# ASSAY_REMARKS: gradient 5% acetonitrile 3 min, to 50% in 2 min, to 85% in 15 min, held 3 min, 100 µL/min
# STATED_CONDITIONS: column: Zorbax Extend-C18 2.1 x 50 mm; eluents: water / acetonitrile, 0.1% formic acid
Catalogue of compounds with associated RP-LC retention time

>  <COMPOUND>
COc1cccc(NC(=O)N2CCN(c3ccc(Nc4cc(C)ccn4)nn3)CC2)c1

>  <RP-LC retention time [s]>
588

$$$$
>  <COMPOUND>
Cn1c(=O)sc2cc(S(=O)(=O)N3CCC(C(=O)NCc4ccco4)CC3)ccc21

>  <RP-LC retention time [s]>
739

$$$$
>  <COMPOUND>
O=[N+]([O-])c1ccccc1S(=O)(=O)Nc1ccc(N2CCOCC2)cc1

>  <RP-LC retention time [s]>
749

$$$$
>  <COMPOUND>
Cc1ccc(CNC(=O)C2CCN(c3cnn(C)c(=O)c3)C2)o1 (stereo not given)

>  <RP-LC retention time [s]>
641

$$$$
>  <COMPOUND>
Cn1cc(CC(=O)NCc2ccc(F)cc2Cl)c2cccnc21

>  <RP-LC retention time [s]>
727

$$$$
>  <COMPOUND>
O=C(Nc1cnc(N2CCCCC2)nc1)c1cc(F)ccc1F

>  <RP-LC retention time [s]>
952

$$$$
>  <COMPOUND>
O=C(CCC(=O)Nc1noc2ccccc12)NCCc1ccc(Cl)cc1

>  <RP-LC retention time [s]>
816

$$$$
>  <COMPOUND>
O=C(c1cccnc1)N1CCc2cc(-c3ccno3)ccc21

>  <RP-LC retention time [s]>
683

$$$$
>  <COMPOUND>
CN(C)c1nn(CC(=O)Nc2ccc(F)c(Cl)c2)c(=O)c2ccccc12

>  <RP-LC retention time [s]>
928

$$$$
>  <COMPOUND>
CCCN1C(=O)Cc2cc(C(=O)O)ccc21

>  <RP-LC retention time [s]>
643

$$$$
>  <COMPOUND>
O=C1NCCCn2cc(S(=O)(=O)Nc3ccc(F)c(Cl)c3)cc21

>  <RP-LC retention time [s]>
686

$$$$
>  <COMPOUND>
O=C(c1cccs1)N1CCC(n2c(-c3ccoc3)nc3cccnc32)C1 (stereo not given)

>  <RP-LC retention time [s]>
685

$$$$
>  <COMPOUND>
Cc1ccc(Nc2nc(C)cc3nn(CC(=O)Nc4ccc(N(C)C)cc4)c(=O)n23)cc1

>  <RP-LC retention time [s]>
800

$$$$
>  <COMPOUND>
Cc1cc2[nH]c(C(=O)NCc3ccc(N4CCOCC4)cc3)c(CN3CCCC3)c2s1

>  <RP-LC retention time [s]>
660

$$$$
>  <COMPOUND>
Cn1nccc1C(=O)Nc1ccc(Br)cc1

>  <RP-LC retention time [s]>
791

$$$$
>  <COMPOUND>
Cc1oc(-c2[nH]ncc2C(=O)N(C)C)cc1S(=O)(=O)Nc1ccc(F)cc1

>  <RP-LC retention time [s]>
670

$$$$
>  <COMPOUND>
COC(=O)c1ccc2c(=O)n(-c3cccc(Cl)c3)c(N3CCC(C(N)=O)CC3)nc2c1

>  <RP-LC retention time [s]>
781

$$$$
>  <COMPOUND>
Cc1cc(OCC(=O)N2CCCCC2)nc(-c2ccc(Cl)cc2)n1

>  <RP-LC retention time [s]>
790

$$$$
>  <COMPOUND>
Cc1cc(C)c(C)c(S(=O)(=O)N2CCCC2c2nc(-c3ccc(F)cc3)no2)c1C (stereo not given)

>  <RP-LC retention time [s]>
1310

$$$$
>  <COMPOUND>
CCOC(=O)c1ccc(NS(=O)(=O)c2cc(-c3c(CC)noc3NC(C)=O)ccc2OC)cc1

>  <RP-LC retention time [s]>
805

$$$$

Where do the numbers come from? From the METLIN SMRT retention time set (Domingo-Almenara et al. 2019).
